pKi: −log10 of the molar value.
Lab note: pKi readings collected with purified human autoBACE-2 (Homo sapiens (Human), UniProt Q9Y5Z0) for the following molecules.
Sequence (Q9Y5Z0 63-473 limits assumed): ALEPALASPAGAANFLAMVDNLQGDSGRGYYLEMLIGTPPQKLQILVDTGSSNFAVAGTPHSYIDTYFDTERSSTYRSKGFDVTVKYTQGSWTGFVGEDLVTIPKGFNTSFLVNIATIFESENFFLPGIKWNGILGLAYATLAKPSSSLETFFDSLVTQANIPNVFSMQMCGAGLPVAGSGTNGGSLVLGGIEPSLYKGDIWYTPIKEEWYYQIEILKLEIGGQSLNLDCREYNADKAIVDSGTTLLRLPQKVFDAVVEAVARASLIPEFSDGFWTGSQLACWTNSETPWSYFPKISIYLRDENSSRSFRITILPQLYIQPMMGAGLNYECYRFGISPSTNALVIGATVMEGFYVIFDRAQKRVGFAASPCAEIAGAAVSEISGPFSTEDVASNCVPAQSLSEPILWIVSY

>  <molecule>
CN1C(=N)N[C@](C)(c2cc(NC(=O)c3cn4ccc(C#N)cc4n3)ccc2F)C2(CC2)S1(=O)=O [Example 1m]

>  <pKi>
5.79

$$$$
>  <molecule>
COc1cnc(C(=O)Nc2ccc(F)c([C@@]3(C)NC(=N)N(C)S(=O)(=O)C34CC4)c2)c(C)n1 [Example 1q]

>  <pKi>
7.39

$$$$
>  <molecule>
CN1C(=N)N[C@](C)(c2cc(NC(=O)c3ncc(Cl)cc3F)ccc2F)C2(CC2)S1(=O)=O [Example 1o]

>  <pKi>
8.52

$$$$
>  <molecule>
CN1C(=N)N[C@](C)(c2cc(NC(=O)c3cnsn3)ccc2F)C2(CC2)S1(=O)=O [Example 1d]

>  <pKi>
7.82

$$$$
>  <molecule>
Cc1nc(C(=O)Nc2ccc(F)c([C@@]3(C)NC(=N)N(C)S(=O)(=O)C34CC4)c2)c(C)o1 [Example 1u]

>  <pKi>
8.10

$$$$
>  <molecule>
Cc1nc(C(=O)Nc2ccc(F)c([C@@]3(C)NC(=N)N(C)S(=O)(=O)C34CC4)c2)no1 [Example 1h]

>  <pKi>
8.10

$$$$
>  <molecule>
CN1C(=N)N[C@](C)(c2cc(NC(=O)c3cn4ccsc4n3)ccc2F)C2(CC2)S1(=O)=O [Example 1v]

>  <pKi>
7.20

$$$$
>  <molecule>
C#CCOc1ccc(C(=O)Nc2ccc(F)c([C@@]3(C)NC(=N)N(C)S(=O)(=O)C34CC4)c2)nc1 [Example 1c]

>  <pKi>
7.02

$$$$
>  <molecule>
CN1C(=N)N[C@](C)(c2cc(NC(=O)c3cnc(OCCF)cn3)ccc2F)C2(CC2)S1(=O)=O [Example 1t]

>  <pKi>
6.55

$$$$
>  <molecule>
CN1C(=N)N[C@](C)(c2cc(NC(=O)c3cn(C)nc3C(F)(F)F)ccc2F)C2(CC2)S1(=O)=O [Example 1b]

>  <pKi>
5.49

$$$$
>  <molecule>
CN1C(=N)N[C@](C)(c2cc(NC(=O)c3ccn(C(F)F)n3)ccc2F)C2(CC2)S1(=O)=O [Example 1l]

>  <pKi>
8.70

$$$$

Values compiled from patent US9802928B2.
